Target: Retinoic acid receptor gamma (Homo sapiens)
Sequence (P13631 whole entry): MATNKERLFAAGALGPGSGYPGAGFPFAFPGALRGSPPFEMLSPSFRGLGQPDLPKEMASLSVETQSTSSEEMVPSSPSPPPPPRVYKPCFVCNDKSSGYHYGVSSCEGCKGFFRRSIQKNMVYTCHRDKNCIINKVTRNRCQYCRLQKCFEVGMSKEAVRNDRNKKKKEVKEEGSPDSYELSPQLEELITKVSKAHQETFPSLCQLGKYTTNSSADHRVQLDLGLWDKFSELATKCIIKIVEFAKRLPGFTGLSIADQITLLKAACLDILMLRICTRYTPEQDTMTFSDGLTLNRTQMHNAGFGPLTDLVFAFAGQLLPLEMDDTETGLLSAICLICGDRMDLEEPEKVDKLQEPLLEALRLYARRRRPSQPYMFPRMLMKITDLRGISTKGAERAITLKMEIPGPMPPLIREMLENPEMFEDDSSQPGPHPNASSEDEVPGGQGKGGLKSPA
pIC50: −log10 of the molar value.
result_type: pIC50

Returns the measured pIC50 for the input compound. Input: Cc1cccc2c1c(Oc1c(Cl)cccc1Cl)nn2-c1ccc(C(=O)O)cc1
5.96

Tell me the measured pIC50 of CCN(C)C(=O)c1ccc2c(c1)c(Sc1c(Cl)cccc1Cl)nn2-c1ccc(C(=O)O)cc1 , please.
< 5.00

Requested field: pIC50. Item: CN(Cc1ccccc1)C(=O)c1ccc2c(c1)c(Sc1c(Cl)cccc1Cl)nn2-c1ccc(C(=O)O)cc1
< 5.00

Each of the following entries comes with a recorded value; kindly state pIC50 for each.
1. CN(C)C(=O)c1ccc2c(c1)c([S+]([O-])c1c(Cl)cccc1Cl)nn2-c1ccc(C(=O)O)cc1 (centres undefined)
2. O=C(O)c1ccc(-n2nc(Sc3c(Cl)cccc3Cl)c3cc(C(=O)N4CCCC4)ccc32)cc1
3. CS(=O)(=O)c1ccc2c(c1)c(Oc1c(Cl)cccc1Cl)nn2-c1ccc(C(=O)O)cc1

< 5.00
< 5.00
5.35

Please report pIC50 for every entry that follows.
1. O=C(O)c1ccc(-n2nc(Oc3c(Cl)cccc3Cl)c3c(F)cccc32)cc1
2. O=C(O)c1ccc(-n2nc(Oc3c(Cl)cccc3Cl)c3cccc(F)c32)cc1
3. O=C(O)c1ccc(-n2nc(Nc3c(Cl)cccc3Cl)c3ccccc32)cc1
4. CN(CCO)C(=O)c1ccc2c(c1)c(Sc1c(Cl)cccc1Cl)nn2-c1ccc(C(=O)O)cc1
5. O=C(O)[C@H]1CC[C@H](n2nc(Oc3c(Cl)cccc3Cl)c3ccccc32)CC1
6. N#Cc1ccc2c(c1)c(Oc1c(Cl)cccc1Cl)nn2-c1ccc(C(=O)O)cc1
7. O=C(O)[C@H]1CC[C@@H](n2nc(Oc3c(Cl)cccc3Cl)c3ccccc32)CC1

1: 6.10; 2: 5.12; 3: < 5.00; 4: < 5.00; 5: < 5.00; 6: 5.85; 7: < 5.00

// for each compound in input: emit pIC50
1. O=C(O)c1ccc(-n2nc(Cc3c(Cl)cccc3Cl)c3ccccc32)cc1
2. CN(C)C(=O)c1ccc2c(-c3ccc(C(=O)O)cc3)nn(C(=O)c3c(Cl)cccc3Cl)c2c1
3. Cc1cccc(Cl)c1Oc1nn(-c2ccc(C(=O)O)cc2)c2ccc(C(=O)N(C)C)cc12
4. O=C(O)c1ccc(-n2nc(Oc3c(Cl)cccc3Cl)c3ccccc32)c(F)c1
5. Cc1ccc([C@@H](NC(=O)Cc2ccc3oc([C@@H](O)c4c(C)noc4C)cc3c2)c2ccccc2)c(C)c1
6. CN(C)C(=O)c1ccc2c(c1)c(Sc1c(Cl)cccc1Cl)nn2-c1ccc(C(=O)O)cc1

[5.17, "< 5.00", "< 5.00", "< 5.00", "< 5.00", "< 5.00"]

====

log10(IC50), Nuclear receptor ROR-gamma (Homo sapiens, UniProt P51449), per-entry values.
Plainly stated, the numbers are log10 of IC50 given in nM.

These solved cases illustrate the format of a correct answer.
Find the recorded log10(IC50) belonging to CN(C)C(=O)c1ccc2c(c1)c(Sc1cc(Cl)ccc1Cl)nn2-c1ccc(C(=O)O)cc1 and report it.
3.63

Requested field: log10(IC50). Item: O=C(O)c1ccc(-n2nc(S(=O)(=O)c3c(Cl)cccc3Cl)c3ccccc32)cc1
3.68

Consider the molecule shown here: CCS(=O)(=O)c1ccc(CC(=O)Nc2nc(-c3cccc(Cl)c3)c(C(=O)c3ccccc3Cl)s2)cc1 What is its recorded log10(IC50)?
1.90

Which log10(IC50) is listed for O=C(O)c1ccc(-n2nc(Oc3c(Cl)cccc3Cl)c3cccnc32)cc1 ?
3.08

Please look up its log10(IC50): O=C(O)c1ccc(-n2nc(Sc3c(Cl)cccc3Cl)c3cc(C(=O)N4CC(F)(F)C4)ccc32)cc1
2.86

Endpoint output: log10(IC50) of Cc1cccc(Cl)c1Oc1nn(-c2ccc(C(=O)O)cc2)c2ccc(C(=O)N(C)C)cc12 . Value?
2.08

Provide log10(IC50) for all items below, preserving their order.
1. O=C(O)c1ccc(-n2nc(Oc3c(Cl)cccc3Cl)c3ccccc32)cc1
2. CN(C)C(=O)c1ccc2c(c1)c(Sc1c(F)cccc1Cl)nn2-c1ccc(C(=O)O)cc1

1: 2.15; 2: 3.70

Please supply log10(IC50) for each of the following items, keeping them in order.
1. Cc1cccc(C)c1Sc1nn(-c2ccc(C(=O)O)cc2)c2ccc(C(=O)N(C)C)cc12
2. O=C(O)c1ccc(-n2nc(Cc3c(Cl)cccc3Cl)c3ccccc32)cc1
3. Cc1cccc2c1c(Oc1c(Cl)cccc1Cl)nn2-c1ccc(C(=O)O)cc1
4. O=C(O)c1cc(F)c(-n2nc(Oc3c(Cl)cccc3Cl)c3ccccc32)c(F)c1
5. CN(C)C(=O)c1ccc2c(c1)c(Oc1c(Cl)cccc1Cl)nn2-c1ccc(C(=O)O)cc1

2.57
3.26
2.91
2.49
2.48

Endpoint output: log10(IC50) of CN(C)C(=O)c1ccc2c(c1)c(Nc1c(Cl)cccc1Cl)nn2-c1ccc(C(=O)O)cc1 . Value?
3.56
